target: horse cytochrome-C on Source 15S cation exchange resin; assay: Batch displacement assay, cytochrome-C on Source 15S; format: binding; conditions: input displacer concentration displacing 50% of bound protein; 50 mM phosphate, pH 6.0
parameter measured: DC50 (mM)
One number for each entry, in mM.

NCCCNCCCCNCCCNC(=O)Nc1ncnc2c1ncn2C1CC(OC(=O)NCCCNCCCCNCCCN)C(COC(=O)NCCCNCCCCNCCCN)O1 (stereo not drawn) :: 1.1
NCCCCNCCCN [Spermidine, spermidine, reference compound] :: 5.8
NCCCNCCCCNCCCNC(=O)NCC1OC(OC2C(NC(=O)NCCCNCCCCNCCCN)CC(NC(=O)NCCCNCCCCNCCCN)C(OC3OC(CO)C(O)C(NC(=O)NCCCNCCCCNCCCN)C3O)C2O)C(O)C(O)C1O (stereo not drawn) [23c, kanamycin A tetraspermine] :: 0.9

Value sought for every listed molecule: DC50.
1. NCCCNCCCCNCCCN [Spermine, spermine, reference compound]
2. NCCNC(=O)NCC1OC(OC2C(NC(=O)NCCN)CC(NC(=O)NCCN)C(OC3OC(CO)C(O)C(NC(=O)NCCN)C3O)C2O)C(N)C(O)C1O (stereo not drawn)
3. NCCNC(=O)NCC1OC(OC2C(NC(=O)NCCN)CC(NC(=O)NCCN)C(O)C2O)C(NC(=O)NCCN)C(O)C1O (stereo not drawn) [17a]
4. NCCNC(=O)NCC1OC(OC2C(NC(=O)NCCN)CC(NC(=O)NCCN)C(OC3OC(CO)C(O)C(NC(=O)NCCN)C3O)C2O)C(O)C(O)C1O (stereo not drawn) [23a]
5. COC1OC(CO)C(OC2OC(CNC(=O)NCCNCCN)C(O)C(O)C2NC(=O)NCCNCCN)C1O (stereo not drawn) [20a]
6. NCCCNCCCCNCCCNC(=O)NC1C(OCc2ccccc2)OC(COC(=O)NCCCNCCCCNCCCN)C(O)C1O (stereo not drawn) [4d]

4.3
1.9
2.3
1.7
4.8
0.8
